ASSAY PROTOCOL: Phase 1/1b clinical trial: plasma pharmacokinetics of PF-07220060
Format: in vivo, human
MEASUREMENT CONDITIONS: human, plasma, po, 100 mg, 100 mg BID oral monotherapy (Part 1A); C1D15 post multiple doses; median; read-out: Tmax
MEASURE: Tmax (h)
# value in h; strip the unit string

Inquiry: Which Tmax reading was recorded for the molecule CC(C)n1c(C(C)(C)O)nc2c(F)cc(-c3nc(N[C@@H]4CCOC[C@H]4O)ncc3Cl)cc21 [PF-07220060] ?
Reply text: 1

* * *

ASSAY PROTOCOL: Phase 1/1b clinical trial: plasma pharmacokinetics of PF-07220060
Assay type: in vivo, human
MEASUREMENT CONDITIONS: human, plasma, po, following oral dose administration, across cohorts (100 to 500 mg BID); read-out: median Tmax values
Description: Oral PF-07220060 was administered with at least 8 oz (240 mL) of water on an empty stomach (except during the food effect evaluation on Day-7 in Part 1D). No food or liquids other than water was consumed for 2 hours before and 1 hour following each dose throughout the study for BID dosing. […] In the ongoing Phase 1/1b Study, as of Aug. […] Available plasma concentration-time data of PF-07220060 were analyzed using noncompartmental methods. […]
MEASURE: Tmax

Inquiry: Which Tmax reading was recorded for the molecule CC(C)n1c(C(C)(C)O)nc2c(F)cc(-c3nc(N[C@@H]4CCOC[C@H]4O)ncc3Cl)cc21 [PF-07220060] ?
Reply text: 1 to 4 h

* * *

ASSAY PROTOCOL: Phase 1/1b clinical trial: plasma pharmacokinetics of PF-07220060
Format: in vivo, human
MEASUREMENT CONDITIONS: human, plasma, po, 500 mg, 500 mg BID oral monotherapy (Part 1A); C1D1 post first dose; median; read-out: Tmax
MEASURE: Tmax (h)
# value in h; strip the unit string

Inquiry: Which Tmax reading was recorded for the compound CC(C)n1c(C(C)(C)O)nc2c(F)cc(-c3nc(N[C@@H]4CCOC[C@H]4O)ncc3Cl)cc21 ?
Reply text: 1.9

* * *

ASSAY PROTOCOL: Phase 1/1b clinical trial: plasma pharmacokinetics of PF-07220060
Format: in vivo, human
MEASUREMENT CONDITIONS: human, plasma, po, 100 mg, 100 mg BID oral monotherapy (Part 1A); C1D15; geometric mean, n = 2; read-out: AUCtau
MEASURE: AUC (µg·h/mL)
# value in µg·h/mL; strip the unit string

Inquiry: Which AUC reading was recorded for the compound CC(C)n1c(C(C)(C)O)nc2c(F)cc(-c3nc(N[C@@H]4CCOC[C@H]4O)ncc3Cl)cc21 [PF-07220060] ?
Reply text: 4.06

* * *

ASSAY PROTOCOL: Phase 1/1b clinical trial: plasma pharmacokinetics of PF-07220060
Type: in vivo, human
MEASUREMENT CONDITIONS: human, plasma, po, 300 mg BID oral + letrozole (Part 1B); C1D15 post multiple doses; median; read-out: Tmax
MEASURE: Tmax (h)
# value in h; strip the unit string

Inquiry: Which Tmax reading was recorded for the molecule CC(C)n1c(C(C)(C)O)nc2c(F)cc(-c3nc(N[C@@H]4CCOC[C@H]4O)ncc3Cl)cc21 ?
Reply text: 1

* * *

ASSAY PROTOCOL: Phase 1/1b clinical trial: plasma pharmacokinetics of PF-07220060
Format: in vivo, human
MEASUREMENT CONDITIONS: human, plasma, po, 400 mg BID oral + fulvestrant (Part 1C); C1D15; arithmetic mean
Protocol: Oral PF-07220060 was administered with at least 8 oz (240 mL) of water on an empty stomach (except during the food effect evaluation on Day-7 in Part 1D). No food or liquids other than water was consumed for 2 hours before and 1 hour following each dose throughout the study for BID dosing. […] In the ongoing Phase 1/1b Study, as of Aug. […] Available plasma concentration-time data of PF-07220060 were analyzed using noncompartmental methods. […]
MEASURE: half-life
Number plus unit, in that order.

Inquiry: Which half-life reading was recorded for the compound CC(C)n1c(C(C)(C)O)nc2c(F)cc(-c3nc(N[C@@H]4CCOC[C@H]4O)ncc3Cl)cc21 [PF-07220060] ?
Reply text: 396 min
